- CONDITIONS USED: in acetone, 305.65 K
EXPERIMENTAL READOUT: solubility (mole fraction)
Give bare numbers.

I am curious: what solubility (mole fraction) value has been reported for `Cc1c(C(=O)O)cccc1[N+](=O)[O-]` ?
0.0728

* * *

- CONDITIONS USED: in 2-butanone, 300.65 K
EXPERIMENTAL READOUT: solubility (mole fraction)
Numbers only.

Query (compound): `Cc1c(C(=O)O)cccc1[N+](=O)[O-]` ; field requested: solubility (mole fraction)
0.0645

* * *

- CONDITIONS USED: in acetonitrile, 318.15 K
EXPERIMENTAL READOUT: solubility (mole fraction)
One number for each entry.

Could you tell me which solubility (mole fraction) is on file for `Cc1c(C(=O)O)cccc1[N+](=O)[O-]` ?
0.0242

* * *

- CONDITIONS USED: in methanol, 308.15 K
EXPERIMENTAL READOUT: solubility (mole fraction)
Give bare numbers.

Return reported solubility (mole fraction); argument: `Cc1c(C(=O)O)cccc1[N+](=O)[O-]`
0.0483

* * *

- CONDITIONS USED: in acetone, 285.65 K
EXPERIMENTAL READOUT: solubility (mole fraction)
Give bare numbers.

# lookup: solubility (mole fraction) of `Cc1c(C(=O)O)cccc1[N+](=O)[O-]`
0.0614

* * *

- CONDITIONS USED: in acetonitrile, 303.15 K
EXPERIMENTAL READOUT: solubility (mole fraction)
Numbers only.

Data request, read-out solubility (mole fraction), for `Cc1c(C(=O)O)cccc1[N+](=O)[O-]`
0.0161

* * *

- CONDITIONS USED: in n-propanol, 290.65 K
EXPERIMENTAL READOUT: solubility (mole fraction)
Numbers only.

Which value of solubility (mole fraction) has been reported for `Cc1c(C(=O)O)cccc1[N+](=O)[O-]` in the records?
0.0162

* * *

- CONDITIONS USED: in n-propanol, 300.65 K
EXPERIMENTAL READOUT: solubility (mole fraction)
Numbers only.

# get_value(readout='solubility (mole fraction)', item= `Cc1c(C(=O)O)cccc1[N+](=O)[O-]` )
0.0258

* * *

- CONDITIONS USED: in 1,4-dioxane, 300.65 K
EXPERIMENTAL READOUT: solubility (mole fraction)
One number for each entry.

Please give the measured solubility (mole fraction) for this compound: `Cc1c(C(=O)O)cccc1[N+](=O)[O-]`
0.0796

* * *

- CONDITIONS USED: in 1,4-dioxane, 293.15 K
EXPERIMENTAL READOUT: solubility (mole fraction)
Answers are plain numbers.

Please report the recorded solubility (mole fraction) for `Cc1c(C(=O)O)cccc1[N+](=O)[O-]` .
0.0749

* * *

- CONDITIONS USED: in acetone, 290.65 K
EXPERIMENTAL READOUT: solubility (mole fraction)
Give bare numbers.

Could you share which solubility (mole fraction) value was measured for `Cc1c(C(=O)O)cccc1[N+](=O)[O-]` ?
0.0641

* * *

- CONDITIONS USED: in ethyl acetate, 293.15 K
EXPERIMENTAL READOUT: solubility (mole fraction)
Answers are plain numbers.

Given `Cc1c(C(=O)O)cccc1[N+](=O)[O-]` , state its recorded solubility (mole fraction).
0.0373

* * *

- CONDITIONS USED: in isopropanol, 308.15 K
EXPERIMENTAL READOUT: solubility (mole fraction)

Request the reported solubility (mole fraction) associated with `Cc1c(C(=O)O)cccc1[N+](=O)[O-]`
0.0396

* * *

- CONDITIONS USED: in ethyl acetate, 310.65 K
EXPERIMENTAL READOUT: solubility (mole fraction)
One number for each entry.

So what's the measured solubility (mole fraction) for this one? `Cc1c(C(=O)O)cccc1[N+](=O)[O-]`
0.0499

* * *

- CONDITIONS USED: in 2-butanone, 313.15 K
EXPERIMENTAL READOUT: solubility (mole fraction)
Numbers only.

# get_value(readout='solubility (mole fraction)', item= `Cc1c(C(=O)O)cccc1[N+](=O)[O-]` )
0.0741

* * *

- CONDITIONS USED: in n-propanol, 315.65 K
EXPERIMENTAL READOUT: solubility (mole fraction)
Numbers only.

# lookup: solubility (mole fraction) of `Cc1c(C(=O)O)cccc1[N+](=O)[O-]`
0.0506

* * *

- CONDITIONS USED: in 1,4-dioxane, 298.15 K
EXPERIMENTAL READOUT: solubility (mole fraction)

Value lookup for solubility (mole fraction); key = `Cc1c(C(=O)O)cccc1[N+](=O)[O-]`
0.0779

* * *

- CONDITIONS USED: in 1,4-dioxane, 295.65 K
EXPERIMENTAL READOUT: solubility (mole fraction)
Answers are plain numbers.

I have this molecule here, `Cc1c(C(=O)O)cccc1[N+](=O)[O-]` , and I need its recorded solubility (mole fraction).
0.0764

* * *

- CONDITIONS USED: in acetone, 308.15 K
EXPERIMENTAL READOUT: solubility (mole fraction)
Answers are plain numbers.

Please give the measured solubility (mole fraction) for this compound: `Cc1c(C(=O)O)cccc1[N+](=O)[O-]`
0.0745

* * *

- CONDITIONS USED: in acetonitrile, 285.65 K
EXPERIMENTAL READOUT: solubility (mole fraction)
Give bare numbers.

Can you share its solubility (mole fraction)? I mean this compound: `Cc1c(C(=O)O)cccc1[N+](=O)[O-]`
0.00919

* * *

- CONDITIONS USED: in ethyl acetate, 308.15 K
EXPERIMENTAL READOUT: solubility (mole fraction)

Reported solubility (mole fraction) for `Cc1c(C(=O)O)cccc1[N+](=O)[O-]` : what is it?
0.0478

* * *

- CONDITIONS USED: in 1,4-dioxane, 288.15 K
EXPERIMENTAL READOUT: solubility (mole fraction)
Give bare numbers.

GET /values?readout=solubility (mole fraction)&item= `Cc1c(C(=O)O)cccc1[N+](=O)[O-]`
0.0718

* * *

- CONDITIONS USED: in methanol, 288.15 K
EXPERIMENTAL READOUT: solubility (mole fraction)
Give bare numbers.

Form field: reported solubility (mole fraction) of `Cc1c(C(=O)O)cccc1[N+](=O)[O-]`
0.0202

* * *

- CONDITIONS USED: in methanol, 295.65 K
EXPERIMENTAL READOUT: solubility (mole fraction)
Answers are plain numbers.

Any idea what its solubility (mole fraction) is? The molecule is `Cc1c(C(=O)O)cccc1[N+](=O)[O-]`
0.0286

* * *

- CONDITIONS USED: in n-propanol, 295.65 K
EXPERIMENTAL READOUT: solubility (mole fraction)
Answers are plain numbers.

Given the entry `Cc1c(C(=O)O)cccc1[N+](=O)[O-]` , report its measured solubility (mole fraction).
0.0205

* * *

- CONDITIONS USED: in n-propanol, 318.15 K
EXPERIMENTAL READOUT: solubility (mole fraction)
Numbers only.

Sample `Cc1c(C(=O)O)cccc1[N+](=O)[O-]` — what was its solubility (mole fraction)?
0.0556

* * *

- CONDITIONS USED: in isopropanol, 300.65 K
EXPERIMENTAL READOUT: solubility (mole fraction)
Answers are plain numbers.

Sample `Cc1c(C(=O)O)cccc1[N+](=O)[O-]` — what was its solubility (mole fraction)?
0.0289

* * *

- CONDITIONS USED: in methanol, 290.65 K
EXPERIMENTAL READOUT: solubility (mole fraction)
One number for each entry.

Entry under review: `Cc1c(C(=O)O)cccc1[N+](=O)[O-]` . Reported solubility (mole fraction)?
0.0225

* * *

- CONDITIONS USED: in acetonitrile, 288.15 K
EXPERIMENTAL READOUT: solubility (mole fraction)
Give bare numbers.

Given the molecule `Cc1c(C(=O)O)cccc1[N+](=O)[O-]` , what is its reported solubility (mole fraction)?
0.00993

* * *

- CONDITIONS USED: in methanol, 318.15 K
EXPERIMENTAL READOUT: solubility (mole fraction)
Numbers only.

Returns the measured solubility (mole fraction) for the input molecule. Input: `Cc1c(C(=O)O)cccc1[N+](=O)[O-]`
0.0685

* * *

- CONDITIONS USED: in acetonitrile, 300.65 K
EXPERIMENTAL READOUT: solubility (mole fraction)
Answers are plain numbers.

What does the data say about its solubility (mole fraction)? Entry: `Cc1c(C(=O)O)cccc1[N+](=O)[O-]`
0.0149

* * *

- CONDITIONS USED: in ethanol, 283.15 K
EXPERIMENTAL READOUT: solubility (mole fraction)
One number for each entry.

What value of solubility (mole fraction) has been recorded for this entry: `Cc1c(C(=O)O)cccc1[N+](=O)[O-]`
0.0149

* * *

- CONDITIONS USED: in 1,4-dioxane, 303.15 K
EXPERIMENTAL READOUT: solubility (mole fraction)
Answers are plain numbers.

For the molecule shown here, `Cc1c(C(=O)O)cccc1[N+](=O)[O-]` , give the reported solubility (mole fraction).
0.0814
